# SYSTEM_NAME: T1, monkey MSLN full-length protein (NCBI: XP_028696439.1) expressed on HEK293T-monkey MSLN cells (monkey)
# T1 construct: Whole encoded precursor
# T1 chain: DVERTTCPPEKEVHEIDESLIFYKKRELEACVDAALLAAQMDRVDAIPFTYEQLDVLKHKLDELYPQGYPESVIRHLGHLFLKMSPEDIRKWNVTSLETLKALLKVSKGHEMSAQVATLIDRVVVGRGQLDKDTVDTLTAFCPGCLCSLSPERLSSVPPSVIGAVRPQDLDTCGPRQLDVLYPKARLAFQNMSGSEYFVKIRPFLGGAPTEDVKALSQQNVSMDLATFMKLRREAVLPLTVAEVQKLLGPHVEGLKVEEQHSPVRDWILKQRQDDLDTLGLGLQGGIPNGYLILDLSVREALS
# TEST_PROTOCOL: FACS on HEK293T-monkey MSLN cells
Mark NO for Maximum mean fluorescence intensity values under 20000, and YES for everything at or above.

Entry S009-F2.47.1 (antibody, human IgG1, kappa, V domains shown, human-murine chimeric antibody, human IgG1/kappa constant regions) VH: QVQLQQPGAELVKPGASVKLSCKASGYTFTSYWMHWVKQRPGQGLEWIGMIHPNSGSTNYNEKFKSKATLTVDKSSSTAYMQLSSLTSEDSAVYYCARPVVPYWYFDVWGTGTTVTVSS VL: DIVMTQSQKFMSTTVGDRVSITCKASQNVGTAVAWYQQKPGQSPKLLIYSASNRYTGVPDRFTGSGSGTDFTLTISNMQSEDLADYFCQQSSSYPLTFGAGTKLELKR : is its Maximum mean fluorescence intensity no less than 20000?
NO

Follow-up item: S009-F2.13.3 (antibody, human IgG1, kappa, V domains shown, human-murine chimeric antibody, human IgG1/kappa constant regions) VH: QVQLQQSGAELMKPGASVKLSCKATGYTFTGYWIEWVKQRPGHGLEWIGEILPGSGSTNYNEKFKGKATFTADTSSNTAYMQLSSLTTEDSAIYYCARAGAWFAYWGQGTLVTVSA VL: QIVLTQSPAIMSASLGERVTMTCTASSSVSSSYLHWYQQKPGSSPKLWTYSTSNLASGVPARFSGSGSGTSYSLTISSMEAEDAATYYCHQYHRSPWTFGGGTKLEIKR
NO

Consider next the binder S009-F2.16.10 (antibody, human IgG1, kappa, V domains shown, human-murine chimeric antibody, human IgG1/kappa constant regions) VH: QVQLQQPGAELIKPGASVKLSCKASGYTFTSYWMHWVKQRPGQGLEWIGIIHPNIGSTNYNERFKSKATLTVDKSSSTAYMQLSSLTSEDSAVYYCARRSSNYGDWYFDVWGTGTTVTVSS VL: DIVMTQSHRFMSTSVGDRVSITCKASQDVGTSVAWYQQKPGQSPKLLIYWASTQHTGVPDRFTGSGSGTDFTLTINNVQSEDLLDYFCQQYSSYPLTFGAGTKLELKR in the same way.
NO

Follow-up entry: S009-F2.39.3 (antibody, human IgG1, kappa, V domains shown, human-murine chimeric antibody, human IgG1/kappa constant regions) VH: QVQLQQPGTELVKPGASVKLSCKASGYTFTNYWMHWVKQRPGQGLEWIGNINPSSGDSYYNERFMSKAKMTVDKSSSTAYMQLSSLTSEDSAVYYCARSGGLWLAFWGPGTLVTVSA VL: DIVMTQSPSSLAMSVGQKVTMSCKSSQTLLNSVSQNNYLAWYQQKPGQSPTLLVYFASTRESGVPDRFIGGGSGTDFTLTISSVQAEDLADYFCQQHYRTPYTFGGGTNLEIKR
YES

Okay, and S009-F2-56.12 (antibody, human IgG1, kappa, V domains shown, human-murine chimeric antibody, human IgG1/kappa constant regions) VH: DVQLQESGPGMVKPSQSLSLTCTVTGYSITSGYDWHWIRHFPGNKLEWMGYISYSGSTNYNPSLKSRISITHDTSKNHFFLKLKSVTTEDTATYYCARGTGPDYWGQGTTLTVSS VL: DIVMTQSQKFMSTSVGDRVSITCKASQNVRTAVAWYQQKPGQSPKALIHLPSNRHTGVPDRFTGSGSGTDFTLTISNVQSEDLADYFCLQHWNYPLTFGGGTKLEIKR ?
NO
